So I've got a bunch of molecules here, and I need their Ratio values.
System: Raphanus raphanistrum
procedure-details: Resistance index, ratio of I50 for ALS Ala122Tyr mutant in ALS-herbicide-resistant Raphanus raphanistrum WARR30 (wild radish) expressing ALS Ala122Tyr mutant to I50 for ALS-herbicide-susceptible Raphanus raphanistrum (wild radish)

Measured Ratio (Raphanus raphanistrum), entry COc1cc(OC)n2nc(S(=O)(=O)Nc3c(Cl)ccc(C)c3Cl)nc2n1 : > 94500

The molecule CC(C)C1(C)N=C(c2ncccc2C(=O)O)NC1=O (stereo unspecified) on Raphanus raphanistrum: Ratio was > 14.6

Cc1ccn2nc(S(=O)(=O)Nc3c(F)cccc3F)nc2n1 on Raphanus raphanistrum gives Ratio = > 60

Value sought: Ratio, system Raphanus raphanistrum, item Cc1cc(C)nc(NC(=O)NS(=O)(=O)c2ccccc2C(=O)O)n1 . Result: > 4350

Reading of Ratio for COCc1cnc(C2=NC(C)(C(C)C)C(=O)N2)c(C(=O)O)c1 (stereo unspecified) with Raphanus raphanistrum: > 21

Measured Ratio for this entry CCc1cnc(C2=NC(C)(C(C)C)C(=O)N2)c(C(=O)O)c1 (stereo unspecified) on Raphanus raphanistrum: > 741

====

study-target: Acetolactate synthase (Raphanus raphanistrum, UniProt J7HAW4, A122Y)
procedure-details: Inhibition of ALS Ala122Tyr mutant in ALS-herbicide-resistant Raphanus raphanistrum WARR30 (wild radish) expressing ALS Ala122Tyr mutant
measurement-conditions: read-out: I50
pIC50: −log10 of the molar value.
I'd appreciate it if you could supply pIC50 values for the items below.

pIC50 for COCc1cnc(C2=NC(C)(C(C)C)C(=O)N2)c(C(=O)O)c1 (stereo unspecified) [IMAZAMOX] is < 4.00

Looking up Cc1cc(C)nc(NC(=O)NS(=O)(=O)c2ccccc2C(=O)O)n1 [SULFOMETURON] , I found its pIC50 recorded as < 4.00

Short answer for CC(C)C1(C)N=C(c2ncccc2C(=O)O)NC1=O (stereo unspecified) [IMAZAPYR] : pIC50 was < 4.00

pIC50 reading for CCc1cnc(C2=NC(C)(C(C)C)C(=O)N2)c(C(=O)O)c1 (stereo unspecified) [IMAZETHAPYR] : < 3.00

Memo: Cc1ccn2nc(S(=O)(=O)Nc3c(F)cccc3F)nc2n1 , reported pIC50: < 4.00

// COc1cc(OC)n2nc(S(=O)(=O)Nc3c(Cl)ccc(C)c3Cl)nc2n1 [METOSULAM] : pIC50 value = 4.03

====

Consider the following compounds; for each one, report its LD50.
Tested on: Raphanus raphanistrum
procedure-details: Herbicidal activity against two to three leaf stage ALS-herbicide-resistant Raphanus raphanistrum WARR30 (wild radish) expressing ALS Ala122Tyr mutant assessed as reduction in survival measured 3 weeks after compound treatment
Format: functional

Bench note, Raphanus raphanistrum: COCc1cnc(C2=NC(C)(C(C)C)C(=O)N2)c(C(=O)O)c1 (centres undefined) , LD50 reads >1600 g/ha

The compound COc1cc(OC)n2nc(S(=O)(=O)Nc3c(Cl)ccc(C)c3Cl)nc2n1 on Raphanus raphanistrum: LD50 was >384 g/ha

LD50 value, target or system Raphanus raphanistrum, for COc1nc(C)nc(NC(=O)NS(=O)(=O)c2ccccc2Cl)n1 : >640 g/ha

The measured LD50 that CC(C)C1(C)N=C(c2ncccc2C(=O)O)NC1=O (centres undefined) showed for Raphanus raphanistrum is 1000 g/ha
